# SYSTEM: T1, Cynomolgus v6-peptide (cynomolgus, UniProt A0A2K5VJE0 387-429, N-terminal biotin)
# T1 construct: domain: v6-region (43 amino acids); also called Cm v6-peptide; cm v6-peptide
# T1 peptide: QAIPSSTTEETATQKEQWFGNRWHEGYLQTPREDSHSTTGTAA
# ASSAY PROTOCOL: SPR SCK, antibody immobilised, peptide injected
# kon listing for each entry below
Field: numeric (M⁻¹ s⁻¹). Do not append units.

Below, each entry is followed by its recorded kon result.
{"columns": ["BINDER", "kon, M⁻¹ s⁻¹"],
 "data": [
  ["AL-MN114-132 IgG1 LALA IAHA (antibody, V domains shown, Human IgG1 LALA IAHA, kappa) VH: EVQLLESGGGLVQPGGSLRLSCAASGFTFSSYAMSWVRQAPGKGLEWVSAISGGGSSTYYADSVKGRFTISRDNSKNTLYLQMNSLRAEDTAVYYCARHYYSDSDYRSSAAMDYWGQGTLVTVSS VL: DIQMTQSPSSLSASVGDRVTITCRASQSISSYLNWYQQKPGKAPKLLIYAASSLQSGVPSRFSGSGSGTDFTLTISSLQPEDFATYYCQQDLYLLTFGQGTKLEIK", 860000],
  ["AL-MN114-71 IgG1 LALA IAHA (antibody, V domains shown, Human IgG1 LALA IAHA, kappa) VH: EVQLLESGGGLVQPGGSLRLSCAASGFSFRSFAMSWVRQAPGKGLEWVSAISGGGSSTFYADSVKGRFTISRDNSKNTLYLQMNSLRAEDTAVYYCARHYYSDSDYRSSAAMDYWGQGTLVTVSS VL: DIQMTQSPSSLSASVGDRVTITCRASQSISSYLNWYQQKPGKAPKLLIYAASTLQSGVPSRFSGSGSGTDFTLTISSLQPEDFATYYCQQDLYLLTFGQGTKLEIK", 710000],
  ["AL-MN114-132 IgG1 LALA (antibody, V domains shown, item 20 iii) gives heavy 77 / light 96 without naming the format) VH: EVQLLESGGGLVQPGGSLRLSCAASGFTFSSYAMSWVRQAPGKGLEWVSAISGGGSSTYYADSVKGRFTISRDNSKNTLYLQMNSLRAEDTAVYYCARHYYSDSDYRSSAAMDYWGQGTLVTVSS VL: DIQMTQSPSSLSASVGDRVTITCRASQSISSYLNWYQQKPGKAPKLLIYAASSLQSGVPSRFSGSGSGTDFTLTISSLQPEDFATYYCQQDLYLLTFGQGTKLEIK", "1.3e+06"],
  ["AL-MN114-465 IgG1 LALA IAHA (antibody, V domains shown, Human IgG1 LALA IAHA, kappa) VH: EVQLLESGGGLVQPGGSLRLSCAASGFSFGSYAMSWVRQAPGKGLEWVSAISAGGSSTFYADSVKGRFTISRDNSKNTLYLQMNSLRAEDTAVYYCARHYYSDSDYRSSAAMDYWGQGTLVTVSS VL: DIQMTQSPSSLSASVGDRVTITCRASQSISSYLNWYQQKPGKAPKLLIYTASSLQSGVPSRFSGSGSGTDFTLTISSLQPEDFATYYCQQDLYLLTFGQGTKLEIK", 680000]
]}

Moving on to another binder below.
Enquiry: Look up kon for this binder: AL-MN114-444 IgG1 LALA IAHA (antibody, V domains shown, Human IgG1 LALA IAHA, kappa) VH: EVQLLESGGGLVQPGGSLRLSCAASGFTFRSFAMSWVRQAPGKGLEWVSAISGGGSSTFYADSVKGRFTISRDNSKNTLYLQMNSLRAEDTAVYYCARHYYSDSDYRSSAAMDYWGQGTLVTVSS VL: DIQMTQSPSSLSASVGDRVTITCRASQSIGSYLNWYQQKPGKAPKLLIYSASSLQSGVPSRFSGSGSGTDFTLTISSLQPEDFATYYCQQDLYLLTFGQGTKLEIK
Return: 720000
